Reference source: patent US9828332B2

Item-by-item account of Kp at 1 h
- assayName: Determination of the brain-to-plasma ratio after intraperitoneal administration (plasma and brain homogenate levels by LC-MS/MS)
- Assay type: in vivo, male CD-1 mice
- cond: male, CD-1, mouse, brain/plasma, ip, 50 mg/kg, 1 hour post dose, mean of mice, read-out: Average B:P Ratio
reportedEndpoint: Kp at 1 h

| structureSmiles | number |
| --- | --- |
| COCCNC(=O)c1cc(C(=O)NCCOC)cc(C(=O)NCCOC)c1 | 0.056 |
| COCCN(C)C(=O)c1cc(C(=O)N(C)CCOC)cc(C(=O)N(C)CCOC)c1 | 0.038 |

* * *

- assayName: Determination of the brain-to-plasma ratio after intraperitoneal administration (plasma and brain homogenate levels by LC-MS/MS)
- Assay type: in vivo, male CD-1 mice
- cond: male, CD-1, mouse, brain, ip, 50 mg/kg, 3 hours post dose, read-out: brain tissue concentrations (BLOQ)

| structureSmiles | concentration at 3 h |
| --- | --- |
| COCCNC(=O)c1cc(C(=O)NCCOC)cc(C(=O)NCCOC)c1 | < 0.5 ng/mL |
